Measured Kd, listed per entry.
MEASUREMENT_TARGET: T1, Pot1-DBD_T62A (Schizosaccharomyces pombe, UniProt O13988 1-389, T62A)
T1 sequence: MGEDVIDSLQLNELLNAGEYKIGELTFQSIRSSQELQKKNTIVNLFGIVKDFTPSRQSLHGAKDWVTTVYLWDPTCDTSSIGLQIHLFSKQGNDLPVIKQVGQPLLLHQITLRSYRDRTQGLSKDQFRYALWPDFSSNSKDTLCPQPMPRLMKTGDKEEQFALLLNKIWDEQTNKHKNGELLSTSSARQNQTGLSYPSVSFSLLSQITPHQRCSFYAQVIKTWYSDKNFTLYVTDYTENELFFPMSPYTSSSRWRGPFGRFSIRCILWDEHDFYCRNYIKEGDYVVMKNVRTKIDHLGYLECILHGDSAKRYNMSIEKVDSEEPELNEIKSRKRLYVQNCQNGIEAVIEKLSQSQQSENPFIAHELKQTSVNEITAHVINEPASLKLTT
METHOD_DESCRIPTION: EMSA
The reply should be a number in nM, with the unit left off.

BINDER	EXPERIMENTAL_ENDPOINT	EXPERIMENTAL_VALUE
GGTTACGGTTAC (ssDNA) [12mer]	Kd	0.048

--- query ---
Req: For the binder shown here, GGTTACGGTTACGGT (ssDNA) [15mer] , give the reported Kd.
Resp: 0.0062
